test: Kinetic aqueous solubility by CLND; type: physicochemical; details: aqueous medium, kinetic from dmso stock, high-throughput CLND
Mark Y for reported solubility of 50 µM or greater; mark N for anything smaller.

[
  {
    "MOLECULE": "COc1ccc(N2C(=O)c3[nH]nc(CC(C)C)c3C2c2ccc(F)cc2)c(OC)c1 (centres unmarked) [Compound 43]",
    "LABEL": "Y"
  },
  {
    "MOLECULE": "CC(C)Cc1n[nH]c2c1C(c1ccc(F)cc1)N(c1ccc3c(c1)OCO3)C2=O (centres unmarked) [Compound 44]",
    "LABEL": "Y"
  },
  {
    "MOLECULE": "COc1ccc(N2C(=O)c3[nH]nc(CC(C)C)c3C2c2ccc(F)cc2)cc1F (centres unmarked) [Compound 42]",
    "LABEL": "N"
  },
  {
    "MOLECULE": "COc1ccc(N2C(=O)c3[nH]nc(CC(C)C)c3C2c2ccc(F)cc2)cc1 (racemic) [Compound 1]",
    "LABEL": "Y"
  }
]

====

assay: Property forecast index (PFI = ChromLogD7.4 + aromatic rings); assay type: physicochemical
Please use yes (1) for PFI under 8 and no (0) for everything else, ties included.

[
  {
    "COMPOUND": "CCc1ccc(N2C(=O)c3[nH]nc(CC(C)C)c3C2c2ccc(F)cc2)cc1 (centres unmarked) [Compound 22]",
    "LABEL": "no (0)"
  },
  {
    "COMPOUND": "COc1ccc(N2C(=O)c3[nH]nc(CC(C)C)c3C2c2ccccc2)cc1 (centres unmarked) [Compound 2]",
    "LABEL": "no (0)"
  },
  {
    "COMPOUND": "COc1ccc(N2C(=O)c3[nH]nc(-c4ccc5c(c4)CCC5)c3C2c2ccc(F)cc2)cc1 (centres unmarked) [Compound 16]",
    "LABEL": "no (0)"
  },
  {
    "COMPOUND": "COCCN1C(=O)c2[nH]nc(CC(C)C)c2C1c1ccc(F)cc1 (centres unmarked) [Compound 41]",
    "LABEL": "yes (1)"
  },
  {
    "COMPOUND": "COc1ccc(N2C(=O)c3[nH]nc(CC(C)C)c3C2c2ccc(F)cn2)cc1 (centres unmarked) [Compound S10]",
    "LABEL": "yes (1)"
  },
  {
    "COMPOUND": "COc1ccc(N2C(=O)c3[nH]nc(CC(C)C)c3C2c2ccccc2Cl)cc1 (centres unmarked) [Compound 55]",
    "LABEL": "no (0)"
  },
  {
    "COMPOUND": "COc1ccc(N2C(=O)c3[nH]nc(CC(C)C)c3C2c2ccc(F)cc2C)cc1F (centres unmarked) [Compound 73]",
    "LABEL": "no (0)"
  },
  {
    "COMPOUND": "C=C(C)CCc1n[nH]c2c1C(c1ccc(F)cc1)N(c1ccc(OC)cc1)C2=O (centres unmarked) [Compound 13]",
    "LABEL": "no (0)"
  },
  {
    "COMPOUND": "COc1ccc(N2C(=O)c3[nH]nc(CC(C)C)c3C2c2cncc(OC)c2)cc1 (centres unmarked) [Compound S11]",
    "LABEL": "yes (1)"
  },
  {
    "COMPOUND": "COc1cccc(N2C(=O)c3[nH]nc(CC(C)C)c3C2c2ccc(F)cc2)c1 (centres unmarked) [Compound 30]",
    "LABEL": "no (0)"
  },
  {
    "COMPOUND": "COc1ccc(N2C(=O)c3[nH]nc(CC(C)C)c3C2c2ccc(OC)nc2)cc1 (centres unmarked) [Compound S12]",
    "LABEL": "yes (1)"
  },
  {
    "COMPOUND": "CC(C)Cc1n[nH]c2c1C(c1ccc(F)cc1)N(CCN1CCCC1)C2=O (centres unmarked) [Compound 39]",
    "LABEL": "yes (1)"
  },
  {
    "COMPOUND": "COC(=O)c1ccc(N2C(=O)c3[nH]nc(CC(C)C)c3C2c2ccc(F)cc2)cc1 (centres unmarked) [Compound 26]",
    "LABEL": "no (0)"
  },
  {
    "COMPOUND": "COc1ccc(N2C(=O)c3[nH]nc(CC(C)C)c3C2c2ccc(F)cc2)c(OC)c1 (centres unmarked) [Compound 43]",
    "LABEL": "no (0)"
  },
  {
    "COMPOUND": "CC(C)Cc1n[nH]c2c1C(c1ccc(F)cc1)N(c1ccc(Br)cc1)C2=O (centres unmarked) [Compound 24]",
    "LABEL": "no (0)"
  }
]
